These measurements were taken from patent US20250084097A1.

assay-target: Ba/F3-TEL-EGFR (L858R/C797S) (Homo sapiens, UniProt P00533, C797S/L858R, cells depend on it)
Construct: fused on or other part: TEL (ETV6) N-terminal oligomerising part fused to the EGFR kinase part; P41212 (Transcription factor ETV6)
Sequence (P00533 whole entry C797S/L858R, the tested form may be a part): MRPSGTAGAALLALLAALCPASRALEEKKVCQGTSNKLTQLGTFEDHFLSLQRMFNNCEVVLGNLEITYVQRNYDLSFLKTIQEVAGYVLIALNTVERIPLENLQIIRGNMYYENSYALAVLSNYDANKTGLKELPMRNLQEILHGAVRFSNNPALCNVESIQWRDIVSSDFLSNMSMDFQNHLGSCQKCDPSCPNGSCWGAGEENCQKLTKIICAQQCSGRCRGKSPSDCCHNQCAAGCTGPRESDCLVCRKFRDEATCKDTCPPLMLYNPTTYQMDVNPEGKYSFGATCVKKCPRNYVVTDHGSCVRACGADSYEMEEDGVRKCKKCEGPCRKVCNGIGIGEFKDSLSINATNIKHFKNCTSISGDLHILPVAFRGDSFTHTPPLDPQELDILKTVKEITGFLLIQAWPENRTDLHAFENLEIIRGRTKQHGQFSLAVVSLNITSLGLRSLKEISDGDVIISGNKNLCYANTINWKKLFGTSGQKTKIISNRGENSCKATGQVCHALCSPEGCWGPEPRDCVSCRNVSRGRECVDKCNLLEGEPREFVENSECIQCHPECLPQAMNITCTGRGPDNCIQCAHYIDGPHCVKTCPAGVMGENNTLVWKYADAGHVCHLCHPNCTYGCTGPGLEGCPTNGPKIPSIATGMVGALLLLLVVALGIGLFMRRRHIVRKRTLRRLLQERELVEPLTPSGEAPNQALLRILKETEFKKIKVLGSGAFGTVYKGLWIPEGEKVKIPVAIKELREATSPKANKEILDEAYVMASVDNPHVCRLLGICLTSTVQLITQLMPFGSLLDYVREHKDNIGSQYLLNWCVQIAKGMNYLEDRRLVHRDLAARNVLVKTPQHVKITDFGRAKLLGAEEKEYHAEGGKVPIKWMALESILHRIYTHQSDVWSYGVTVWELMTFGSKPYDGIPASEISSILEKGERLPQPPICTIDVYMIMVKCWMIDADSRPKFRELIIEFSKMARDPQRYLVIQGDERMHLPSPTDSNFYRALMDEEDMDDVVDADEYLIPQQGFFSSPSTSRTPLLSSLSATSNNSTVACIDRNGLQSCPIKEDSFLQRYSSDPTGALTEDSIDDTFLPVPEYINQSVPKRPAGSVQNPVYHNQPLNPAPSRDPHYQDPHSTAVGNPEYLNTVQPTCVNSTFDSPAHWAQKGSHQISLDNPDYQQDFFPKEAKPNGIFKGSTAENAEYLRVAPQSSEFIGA
protocol-text: Cell proliferation inhibition, CellTiter-Glo
Format: cell-based
stated-conditions: 72 hours, read-out: Cell half-maximal inhibition concentration IC50 Ba/F3-TEL-EGFR (L858R/C797S)
Task for the reader: assign each of the following molecules its reported GI50.
Give bare numbers, in nM.

{"molecule": "Cc1cc2cc(n1)-c1cnn(C)c1OCCC[C@@H](C)CN1/C(=N/C2=O)Nc2ccc(N=S(C)(C)=O)cc21", "measured-number": 3.1}
{"molecule": "Cc1cc2cc(n1)-c1cnn(C)c1OCCC[C@@H](C)CN1/C(=N/C2=O)Nc2ccc(N=S(C)(C)=O)c(Cl)c21", "measured-number": 7.3}
{"molecule": "Cc1cc2cc(n1)-c1cnn(C)c1OC[C@H]1CC[C@H](C1)CN1/C(=N/C2=O)Nc2ccc(N=S(C)(C)=O)cc21 (single isomer, unassigned) [WX-027A]", "measured-number": 5.2}

Kindly consider the entry below.
What value of measured GI50 is listed for Cc1cc2cc(n1)-c1cnn(C)c1OCCC[C@@H](C)CN1/C(=N/C2=O)Nc2ccc(N=S3(=O)CCCC3)cc21 [WX-010 (trifluoroacetate)] ? 3

---

protocol-text: Pharmacokinetic assay of compounds in mice
Assay type: in vivo, male ICR mice
stated-conditions: male, ICR, mouse, plasma, PO 10 mg/kg, read-out: Area under the curve AUC0-last
test-readout: AUC(0-t) (µM·h)
Numbers only, in µM·h.

These recorded examples may help you get a feel for the data.
{"molecule": "Cc1cc2cc(n1)-c1cnn(C)c1OCCC[C@@H](C)CN1/C(=N/C2=O)Nc2ccc(N=S3(=O)CCOCC3)cc21", "test-readout": "AUC(0-t)", "unit-abbreviation": "µM·h", "measured-number": 21.5}
{"molecule": "Cc1cc2cc(n1)-c1cnn(C)c1OCCC[C@@H](C)CN1/C(=N/C2=O)Nc2ccc(N=S3(=O)CCCC3)cc21 [WX-010 (trifluoroacetate)]", "test-readout": "AUC(0-t)", "unit-abbreviation": "µM·h", "measured-number": 30.1}
{"molecule": "Cc1cc2cc(n1)-c1cnn(C)c1OCCC[C@@H](C)CN1/C(=N/C2=O)Nc2ccc(N=S(C)(C)=O)cc21", "test-readout": "AUC(0-t)", "unit-abbreviation": "µM·h", "measured-number": 18.1}
{"molecule": "Cc1cc2cc(n1)-c1cnn(C)c1OC[C@H]1CC[C@H](C1)CN1/C(=N/C2=O)Nc2ccc(N=S(C)(C)=O)cc21 (single isomer, unassigned) [WX-027A]", "test-readout": "AUC(0-t)", "unit-abbreviation": "µM·h", "measured-number": 15.7}

We now examine a further molecule.
// returns reported AUC(0-t) for input Cc1cc2cc(n1)-c1cnn(C)c1OCCC[C@@H](C)CN1/C(=N/C2=O)Nc2ccc(N=S(C)(C)=O)c(Cl)c21 23.2

---

assay-target: EGFR (del19-E746-A750/T790M/C797S) (Homo sapiens, UniProt P00533, C797S/DEL746-750/T790M)
Construct: Reaction Biology Corp. (assay performed there)
Sequence (P00533 with tags, fused parts or gaps DEL746-750/T790M/C797S): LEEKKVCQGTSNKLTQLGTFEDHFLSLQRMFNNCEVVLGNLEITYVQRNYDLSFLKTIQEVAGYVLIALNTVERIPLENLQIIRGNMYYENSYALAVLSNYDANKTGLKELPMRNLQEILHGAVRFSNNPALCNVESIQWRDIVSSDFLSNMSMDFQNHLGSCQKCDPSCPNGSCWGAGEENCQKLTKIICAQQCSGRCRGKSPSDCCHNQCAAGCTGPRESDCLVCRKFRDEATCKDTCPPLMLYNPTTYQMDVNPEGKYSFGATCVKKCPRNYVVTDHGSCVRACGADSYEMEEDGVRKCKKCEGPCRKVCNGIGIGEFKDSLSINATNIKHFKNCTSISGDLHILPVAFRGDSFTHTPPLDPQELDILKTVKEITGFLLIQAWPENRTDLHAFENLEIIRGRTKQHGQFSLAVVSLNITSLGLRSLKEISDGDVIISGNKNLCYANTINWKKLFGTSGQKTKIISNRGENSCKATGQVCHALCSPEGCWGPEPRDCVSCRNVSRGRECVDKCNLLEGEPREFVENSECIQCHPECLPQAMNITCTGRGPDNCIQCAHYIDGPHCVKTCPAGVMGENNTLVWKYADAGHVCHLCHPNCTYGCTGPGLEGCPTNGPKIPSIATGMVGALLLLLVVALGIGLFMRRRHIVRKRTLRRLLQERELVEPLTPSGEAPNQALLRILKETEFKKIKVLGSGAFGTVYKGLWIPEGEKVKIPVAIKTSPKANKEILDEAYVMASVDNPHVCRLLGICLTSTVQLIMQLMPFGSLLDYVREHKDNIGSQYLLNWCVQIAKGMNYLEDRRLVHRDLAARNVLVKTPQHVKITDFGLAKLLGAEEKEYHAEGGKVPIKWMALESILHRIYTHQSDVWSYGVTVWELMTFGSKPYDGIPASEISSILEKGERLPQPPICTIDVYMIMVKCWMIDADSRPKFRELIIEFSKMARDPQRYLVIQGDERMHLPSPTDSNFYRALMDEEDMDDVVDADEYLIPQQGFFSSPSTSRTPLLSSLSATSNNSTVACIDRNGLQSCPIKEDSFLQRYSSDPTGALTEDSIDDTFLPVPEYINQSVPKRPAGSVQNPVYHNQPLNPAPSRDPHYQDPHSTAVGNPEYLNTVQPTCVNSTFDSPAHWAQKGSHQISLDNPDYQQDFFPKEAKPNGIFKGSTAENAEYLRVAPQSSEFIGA
protocol-text: Kinase inhibitory activity, 33P-ATP filtration-binding (Reaction Biology Corp.)
Assay type: biochemical
stated-conditions: ATP 100 μM; read-out: Kinase half-maximal inhibition concentration IC50 EGFR(del19-E746-A750/T790M/C797S)
Assignment: determine reported IC50 for the given compounds.
Output should be the measured figure followed by the unit it is expressed in.

{"compound": "Cc1cc2cc(n1)-c1cnn(C)c1OCCC[C@@H](C)CN1/C(=N/C2=O)Nc2ccc(N=S(C)(C)=O)c(Cl)c21", "IC50": "0.139 nM"}

Given Cc1cc2cc(n1)-c1cnn(C)c1OC[C@H]1CC[C@H](C1)CN1/C(=N/C2=O)Nc2ccc(N=S(C)(C)=O)cc21 (single isomer, unassigned) [WX-027A] , state its recorded IC50. 0.093 nM
